FYI, the data here is from PubChem BioAssay.

# method description: reduced viability of SK-BR-3 breast cancer cells – cell-based, 24 h, human, pilot screen (AID 572);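 further: compound exposure lasted between 18 and 24 h rather than exactly 24 h; 100% = carrier-treated control wells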
# settings: SK-BR-3 viability, CellTiter-Glo luminescence, at 10 µM, active compounds read low
Calls of active or inactive are those of the source.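 How the source made its calls: active means viability at or below 10% of carrier control in both of two separate runs; inconclusive means viability at or below 10% in only one of the two runs; inactive means the rest.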
assay endpoint: viability

# count of solved cases: 2
compound="COc1ccc(S(=O)(=O)N2Cc3ccccc3CC2C(=O)Nc2ccc(O)cc2)cc1OC (centres undefined)" assay_endpoint=viability result="91% (inactive)"
compound="Cc1ccccc1OCc1nnc2n1CC(C)S2 (centres undefined)" assay_endpoint=viability result="99% (inactive)"

Field: viability. Fill in for each record below.
1. CC(C)OC(=O)c1ccc(OC(=O)c2cccnc2)cc1
2. COc1ccc(C(c2sc3nc(C)nn3c2O)N2CCCCC2)cc1 (centres undefined)
3. COc1ccc(C(C(=O)NC2CCCCC2)N2CCC3(CC2)OCCO3)cc1 (centres undefined)
4. CN(CC(=O)N1CCCCC1)S(=O)(=O)c1cccc2cccnc12
5. CCC1CCCCN1CCNS(=O)(=O)c1ccc2c(c1)oc(=O)n2C (centres undefined)
6. CC1Cc2ccccc2N1C(=O)C12CCC(C)(C(=O)C1)C2(C)C (centres undefined)
7. CN(C(=O)c1ccco1)c1nnc(C23CC4CC(CC(C4)C2)C3)s1
8. CCOC(=O)CN1CC23C=CC(O2)C(C(=O)Nc2ccc(OCC)cc2)C3C1=O (centres undefined)

Result:
91.5% (inactive)
90% (inactive)
86% (inactive)
99% (inactive)
91.5% (inactive)
136% (inactive)
86% (inactive)
100% (inactive)
